The reported measurements were obtained from the supplement of paper PMC10567573.

B1: SCNN1D (parent)
chain: FLGHHSFSVRPGTEATISIREDEV

- Variants of: B1
- procedureSummary: protein stability index of a GFP-peptide fusion (GPS, HEK-293T) (PSI 1-6); higher = more stable;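 further: lentivirally expressed fusions sorted by FACS into six bins by GFP to DsRed ratio, PSI derived from sequencing read proportions per bin multiplied by bin number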
- assaySetup: c terminus: a fixed tail appended
readoutType: protein stability index
One number for each entry.

Some solved cases for reference:
FLGHHSFSVRHGTEATISIREDEV [P11H]: 1.7
FLGHHSFSVRQGTEATISIREDEV [P11Q]: 1.99
FLGHHSFGVRPGTEATISIREDEV [S8G]: 2.43
FLGHHSFSVRPGTEATISTREDEV [I19T]: 1.74
FLGHHSFSVRPGTPATISIREDEV [E14P]: 1.76

Could you tell me protein stability index for each of these variants? They are listed below.
1. FLGHHSMSVRPGTEATISIREDEV [F7M]
2. FLGHHSFSVRPGTEATISIRVDEV [E21V]
3. FLGHHSFSVRPGTEATISIREDEH [V24H]
4. FLGHHSFSVRPGTEATISIREDER [V24R]
5. FLGHHSFSVRPGTEATISIRMDEV [E21M]
6. FLGHHSFSVRPGTEATISIREDQV [E23Q]

Response line:
4.18
3.42
1.76
1.49
2.08
1.65
